- Tested on: Z-138 cells
- measurement notes: Z-138 Methylation Assay (In Cell Western for symmetric di-methyl arginine and DNA content)
- Type: cell-based
- measurement context: Homo sapiens, Table D-2, read-out: ICW EC50
pEC50: −log10 of the molar value.
Exercise: state measured pEC50 for each of the compounds provided.

Task: Return pEC50 (reported value) for this compound: OC(COc1cccc(-c2ccc3ncn(C4CNC4)c3c2)c1)CN1CCc2ccccc2C1 (stereo not shown)
Output: 5.00 to 6.00

Task: Return pEC50 (reported value) for this compound: CC(=O)N1CCC(n2ccc3cnc(-c4cccc(OCC(O)CN5CCc6ccccc6C5)c4)nc32)CC1 (stereo not shown)
Output: 6.00 to 7.00

Task: Return pEC50 (reported value) for this compound: CS(=O)(=O)c1ccccc1-c1cccc(OCC(O)CN2CCc3ccccc3C2)c1 (stereo not shown)
Output: 5.00 to 6.00

Task: Return pEC50 (reported value) for this compound: CC(=O)N1CCC(n2ccc3cnc(-c4ccnc(NCC(O)CN5CCc6ccccc6C5)c4)nc32)CC1 (stereo not shown)
Output: > 7.00

* * *

- Test system: Z-138 cells
- measurement notes: Z-138 Methylation Assay (In Cell Western for symmetric di-methyl arginine and DNA content)
- Assay type: cell-based
- measurement context: Homo sapiens, Table D-2, read-out: ICW EC50
pEC50: −log10 of the molar value.
measured metric: pEC50

Task: Return pEC50 (reported value) for this compound: Cn1ncc2ccc(-c3cc(NCC(O)CN4CCc5ccccc5C4)ncn3)cc21 (stereo not drawn) [Compound D205]
Output: 6.00 to 7.00

Task: Return pEC50 (reported value) for this compound: CN1CCN(C(=O)Cn2ccc3cnc(-c4cccc(OCC(O)CN5CCc6ccccc6C5)c4)nc32)CC1 (stereo not drawn) [Compound D244]
Output: 6.00 to 7.00

Task: Return pEC50 (reported value) for this compound: OC(COc1cccc(-c2cc(C(F)(F)F)ccc2Cl)c1)CN1CCc2ccccc2C1 (stereo not drawn) [Compound D62]
Output: 5.00 to 6.00

Task: Return pEC50 (reported value) for this compound: O=C(Cn1cnc2ccc(-c3cccc(OCC(O)CN4CCc5ccccc5C4)c3)cc21)N1CCCC1 (stereo not drawn) [Compound D263]
Output: 6.00 to 7.00

Task: Return pEC50 (reported value) for this compound: OC(COc1cccc(-c2ccc3ncn(C4CCOCC4)c3c2)c1)CN1CCc2ccccc2C1 (stereo not drawn) [Compound D103]
Output: 6.00 to 7.00

Task: Return pEC50 (reported value) for this compound: OC(COc1cccc(-c2ccccc2Oc2ccccc2)c1)CN1CCc2ccccc2C1 (stereo not drawn) [Compound D167]
Output: 5.00 to 6.00

Task: Return pEC50 (reported value) for this compound: OC(COc1cccc(-c2ccc(C(F)(F)F)cc2C(F)(F)F)c1)CN1CCc2ccccc2C1 (stereo not drawn) [Compound D124]
Output: 4.40 to 5.00

Task: Return pEC50 (reported value) for this compound: OC(COc1cccc(-c2cccc3[nH]cnc23)c1)CN1CCc2ccccc2C1 (stereo not drawn) [Compound D223]
Output: 6.00 to 7.00

Task: Return pEC50 (reported value) for this compound: CC(=O)c1cccc(-c2cccc(OCC(O)CN3CCc4ccccc4C3)c2)c1 (stereo not drawn) [Compound D67]
Output: 5.00 to 6.00

Task: Return pEC50 (reported value) for this compound: OC(COc1cccc(-c2ccc3c(c2)OCO3)c1)CN1CCc2ccccc2C1 (stereo not drawn) [Compound D59]
Output: 4.40 to 5.00

Task: Return pEC50 (reported value) for this compound: Cn1cnc2ccc(-c3cccc(NCC(O)CN4CCc5ccccc5C4)n3)cc21 (stereo not drawn) [Compound D117]
Output: 5.00 to 6.00

Task: Return pEC50 (reported value) for this compound: Cn1cc2ccc(-c3cc(NCC(O)CN4CCc5ccccc5C4)ncn3)cc2n1 (stereo not drawn) [Compound D224]
Output: 6.00 to 7.00

Task: Return pEC50 (reported value) for this compound: OC(COc1cccc(-c2ccc(C(F)(F)F)cc2Cl)c1)CN1CCc2ccccc2C1 (stereo not drawn) [Compound D127]
Output: 4.40 to 5.00

Task: Return pEC50 (reported value) for this compound: OC(COc1cccc(-c2cccc3cccnc23)c1)CN1CCc2ccccc2C1 (stereo not drawn) [Compound D65]
Output: 6.00 to 7.00

Task: Return pEC50 (reported value) for this compound: Cn1cnc2ccc(-c3cccc(OCC(O)CN4CCc5ccccc5C4)c3)nc21 (stereo not drawn) [Compound D189]
Output: 6.00 to 7.00

Task: Return pEC50 (reported value) for this compound: CC(=O)N1CCC(n2cnc3ccc(-c4ccnc(NCC(O)CN5CCc6ccccc6C5)c4)cc32)CC1 (stereo not drawn) [Compound D242]
Output: 6.00 to 7.00

Task: Return pEC50 (reported value) for this compound: CN(CC(O)CN1CCc2ccccc2C1)c1cccc(CNC2CCCC2)c1 (stereo not drawn) [Compound D53]
Output: 6.00 to 7.00

Task: Return pEC50 (reported value) for this compound: OC(CNc1cccc(CNC2CCCC2)c1)CN1CCc2ccccc2C1 (stereo not drawn) [Compound D39]
Output: 5.00 to 6.00

Task: Return pEC50 (reported value) for this compound: CC(=O)Nc1cccc(-c2cccc(OCC(O)CN3CCc4ccccc4C3)c2)c1 (stereo not drawn) [Compound D169]
Output: 6.00 to 7.00

Task: Return pEC50 (reported value) for this compound: CNC(=O)c1cccc(-c2cccc(OCC(O)CN3CCc4ccccc4C3)c2)c1 (stereo not drawn) [Compound D186]
Output: 5.00 to 6.00

Task: Return pEC50 (reported value) for this compound: N#Cc1ccccc1-c1cccc(OCC(O)CN2CCc3ccccc3C2)c1 (stereo not drawn) [Compound D93]
Output: 5.00 to 6.00

Task: Return pEC50 (reported value) for this compound: Cn1ccc(C(=O)Nc2cccc(OCC(O)CN3CCc4ccccc4C3)c2)n1 (stereo not drawn) [Compound D162]
Output: 5.00 to 6.00

Task: Return pEC50 (reported value) for this compound: COc1ccc(-c2cccc(OCC(O)CN3CCc4ccccc4C3)c2)cc1Cl (stereo not drawn) [Compound D168]
Output: 4.40 to 5.00

Task: Return pEC50 (reported value) for this compound: O=C1COc2ccc(-c3cccc(OCC(O)CN4CCc5ccccc5C4)c3)cc2N1 (stereo not drawn) [Compound D156]
Output: 5.00 to 6.00

* * *

- test target: PRMT5/MEP50 (Homo sapiens)
- Construct: Expressed full-length human Flag-PRMT5/6His-MeP50 protein complex was purified; made in house; host or cells: Spodoptera frugiperda (SF9) insect cells, baculovirus (pDEST8)
- Sequence (O14744 with tags, fused parts or gaps): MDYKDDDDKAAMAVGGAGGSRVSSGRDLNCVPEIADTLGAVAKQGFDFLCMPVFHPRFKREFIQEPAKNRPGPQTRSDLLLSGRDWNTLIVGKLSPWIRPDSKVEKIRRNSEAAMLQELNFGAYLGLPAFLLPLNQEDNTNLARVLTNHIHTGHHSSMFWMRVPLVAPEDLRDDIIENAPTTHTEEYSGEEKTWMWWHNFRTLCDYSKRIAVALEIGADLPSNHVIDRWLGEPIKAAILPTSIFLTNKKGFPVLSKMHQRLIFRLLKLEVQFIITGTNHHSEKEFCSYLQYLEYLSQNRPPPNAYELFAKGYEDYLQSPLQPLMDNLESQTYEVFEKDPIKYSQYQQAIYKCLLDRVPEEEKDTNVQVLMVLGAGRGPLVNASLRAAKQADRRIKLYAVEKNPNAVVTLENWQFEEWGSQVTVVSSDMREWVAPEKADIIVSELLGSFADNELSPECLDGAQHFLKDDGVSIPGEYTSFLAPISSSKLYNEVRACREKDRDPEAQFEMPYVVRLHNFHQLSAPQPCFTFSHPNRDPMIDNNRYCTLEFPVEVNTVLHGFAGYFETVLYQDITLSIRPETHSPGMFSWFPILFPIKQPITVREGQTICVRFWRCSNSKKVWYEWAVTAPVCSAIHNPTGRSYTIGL
- Sequence (Q9BQA1 with tags, fused parts or gaps partner limits assumed): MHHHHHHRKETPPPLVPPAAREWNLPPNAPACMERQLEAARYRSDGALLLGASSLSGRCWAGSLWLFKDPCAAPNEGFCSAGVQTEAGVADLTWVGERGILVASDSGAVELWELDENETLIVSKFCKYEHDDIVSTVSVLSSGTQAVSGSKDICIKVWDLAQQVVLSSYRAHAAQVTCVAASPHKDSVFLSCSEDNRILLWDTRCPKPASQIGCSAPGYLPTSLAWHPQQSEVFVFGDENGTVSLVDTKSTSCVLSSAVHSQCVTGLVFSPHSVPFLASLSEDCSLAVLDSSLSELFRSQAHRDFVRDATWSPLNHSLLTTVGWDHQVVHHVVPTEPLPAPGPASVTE
- measurement notes: PRMT5 Biochemical Assay (PRMT5/MEP50 enzyme assay on peptide substrate, 3H-SAM Flashplate)
- measurement context: PRMT5 biochemical assay, Table C-2; read-out: Biochemical IC50
measured metric: IC50

Task: Return IC50 (reported value) for this compound: O=C1CN(Cc2cccnc2)CCN1CC(O)CN1CCc2ccccc2C1 (stereo not shown) [Compound C26]
Output: 1000 to 10000 nM

Task: Return IC50 (reported value) for this compound: O=C1Cc2ccccc2N1CC(O)CN1CCc2ccccc2C1 (stereo not shown) [Compound C1]
Output: 101 to 1000 nM

Task: Return IC50 (reported value) for this compound: O=C1CN(c2ccc(CO)cc2)CCN1CC(O)CN1CCc2ccccc2C1 (stereo not shown) [Compound C20]
Output: 101 to 1000 nM

Task: Return IC50 (reported value) for this compound: O=C1CN(Cc2ccccn2)CCN1CC(O)CN1CCc2ccccc2C1 (stereo not shown) [Compound C25]
Output: 1000 to 10000 nM

Task: Return IC50 (reported value) for this compound: Cc1cccc(N2CCN(CC(O)CN3CCc4ccccc4C3)C(=O)C2)c1 (stereo not shown) [Compound C3]
Output: 10000 to 50000 nM

Task: Return IC50 (reported value) for this compound: CN(C)c1ccccc1N1CCN(C[C@H](O)CN2CCc3ccccc3C2)C(=O)C1 [Compound C29]
Output: 101 to 1000 nM

Task: Return IC50 (reported value) for this compound: O=C1COc2ccccc2N1CC(O)CN1CCc2ccccc2C1 (stereo not shown) [Compound C31]
Output: 101 to 1000 nM

Task: Return IC50 (reported value) for this compound: O=C1CN(c2cccc3cccnc23)CCN1CC(O)CN1CCc2ccccc2C1 (stereo not shown) [Compound C4]
Output: < 100 nM

Task: Return IC50 (reported value) for this compound: CN(C)c1ccc(N2CCN(C[C@H](O)CN3CCc4ccccc4C3)C(=O)C2)cc1 [Compound C30]
Output: 1000 to 10000 nM

Task: Return IC50 (reported value) for this compound: CC(=O)N1CCN(CC(O)CN2CCc3ccccc3C2)C(=O)C1 (stereo not shown) [Compound C21]
Output: 1000 to 10000 nM

Task: Return IC50 (reported value) for this compound: O=c1cc(Nc2ccccc2)ccn1C[C@H](O)CN1CCc2ccccc2C1 [Compound C19]
Output: 101 to 1000 nM

Task: Return IC50 (reported value) for this compound: O=C1CN(c2cccc(N3CCOCC3)c2)CCN1CC(O)CN1CCc2ccccc2C1 (stereo not shown) [Compound C12]
Output: < 100 nM

Task: Return IC50 (reported value) for this compound: O=C1CN(c2ccccc2Cl)CCN1CC(O)CN1CCc2ccccc2C1 (stereo not shown) [Compound C9]
Output: 101 to 1000 nM
